system: Yap1 mRNA; assay: Antisense inhibition of human Yap1 in A-431 cells by cEt gapmers, single dose (Example 3, RTS36584); type: cell-based; conditions: Table 12; A-431 cells, 5,000 cells per well, free uptake, 2,000 nM modified oligonucleotide, approx. 48 hours; RTS36584; normalized to RIBOGREEN; Yap1 mRNA relative to untreated control cells
Strand notation (5' to 3'): a small letter for the sugar, then the base; units joined by * are phosphorothioate-linked, units joined directly phosphodiester-linked; [ ] holds rarer units or linkages, { } end groups; capitals alone tell only the bases. k = constrained ethyl (cEt); [5mC] = 5-methylcytosine; d = 2'-deoxy (DNA)
experimental_endpoint: YAP1 (% UTC)
A number alone suffices; assume % UTC.

Recorded results for 2 substances are shown here.
{"columns": ["substance", "experimental_endpoint", "endpoint_unit", "reading"],
 "data": [
  ["958609 (antisense kT*kG*kA*d[5mC]*dA*dA*dG*dT*dG*dT*dG*d[5mC]*dA*kT*kT*kA) [Compound 958609]", "YAP1 (% UTC)", "% UTC", 16],
  ["958494 (kT*kA*kG*d[5mC]*dA*d[5mC]*dT*dA*dG*dG*dA*dG*dG*kA*kA*kA; antisense) [Compound 958494]", "YAP1 (% UTC)", "% UTC", 28]
]}

We now examine a further substance.
Task: Please report the recorded YAP1 (% UTC) for 958504 (kA*kT*k[5mC]*dG*dA*dG*dA*dT*dT*dT*dA*dA*dA*kT*kA*kA; antisense) [Compound 958504] .
Result: 63
